- Tested on: Fibroblast
- Procedure Text: Multiplex assay against human fibroblast
- Format: toxicity, cell-based
- Run Conditions: 24 h, 10 µM, compound concentration 10 uM, replicate 2
Measured Quantity: Population Mitochondria Different-Phenotype (%)
Return type: number; implicit unit %.

For record Cc1ccc(C(C)(O)c2nc3ccccc3s2)c(C)c1 (stereo not given) the listed Population Mitochondria Different-Phenotype (%) is 9

Data point: "CCCC(CCC)C(=O)O" ; Population Mitochondria Different-Phenotype (%) = 4

Population Mitochondria Different-Phenotype (%) reading for O=S(=O)(c1ccccc1)c1cnc2c(N3CCNCC3)cccc2c1 [INTEPIRDINE] : 15

The recorded Population Mitochondria Different-Phenotype (%) for "O=C(NCCO)c1cccc(-c2cc(Nc3ccc(OC(F)(F)F)cc3)ncn2)c1" is 25

The molecule CSc1ccccc1N1CCN(CCCCCC(=O)NC2CCCc3ccccc32)CC1.Cl (stereo not given) showed Population Mitochondria Different-Phenotype (%) equal to 51

Values from ChEMBL document CHEMBL5058577
